# fold change (FC) per record follows
- Tested on: HepG2-ARE-C8
- protocol_text: Activation of Nrf2-ARE pathway in human HepG2-ARE-C8 cells assessed as fold upregulation of ARE-inducing luciferase activity at 160 uM measured after 24 hrs by luciferase reporter gene assay
- Type: cell-based
- measurement_setup: filed as activator
measured_parameter: fold change (FC)

O=C(O)CCCC[C@@H]1SC[C@@H]2NC(=O)N[C@@H]21 = 1.55
Cc1ccc(-c2noc(-c3ccc(F)cc3NC(=O)CCCCCNC(=O)CCCC[C@@H]3SC[C@@H]4NC(=O)N[C@@H]43)n2)cn1 = 11.8
Cc1ccc(-c2noc(-c3ccc(F)cc3)n2)cn1 = 29.6
CCNC(=O)CCCCCNC(C)=O = 1.22
Fc1ccc(-c2nc(-c3ccc4nc[nH]c4c3)no2)cc1 = 31.5
Cc1ccc(-c2noc(-c3ccc(F)cc3NC(=O)CCCCCNC(=S)Nc3ccc4c(c3)C(=O)OC43c4ccc(O)cc4Oc4cc(O)ccc43)n2)cn1 = 6.42
CC(C)(C)c1cc(O)ccc1O = 15.9

----------
# fold change (FC) per record follows
- Test system: HepG2-ARE-C8
- protocol_text: Activation of Nrf2-ARE pathway in human HepG2-ARE-C8 cells assessed as fold upregulation of ARE-inducing luciferase activity at 80 uM measured after 24 hrs by luciferase reporter gene assay
- Assay type: cell-based
- measurement_setup: filed as activator
measured_parameter: fold change (FC)

CCNC(=O)CCCCCNC(C)=O = 1.22
CC(C)(C)c1cc(O)ccc1O = 12
O=C(O)CCCC[C@@H]1SC[C@@H]2NC(=O)N[C@@H]21 = 1.45
Fc1ccc(-c2nc(-c3ccc4nc[nH]c4c3)no2)cc1 = 19.3
Cc1ccc(-c2noc(-c3ccc(F)cc3NC(=O)CCCCCNC(=S)Nc3ccc4c(c3)C(=O)OC43c4ccc(O)cc4Oc4cc(O)ccc43)n2)cn1 = 2.71
Cc1ccc(-c2noc(-c3ccc(F)cc3NC(=O)CCCCCNC(=O)CCCC[C@@H]3SC[C@@H]4NC(=O)N[C@@H]43)n2)cn1 = 7.1
Cc1ccc(-c2noc(-c3ccc(F)cc3)n2)cn1 = 31.7

----------
- tested_on: 26S proteasome non-ATPase regulatory subunit 11 (Homo sapiens)
- Sequence (O00231 whole entry): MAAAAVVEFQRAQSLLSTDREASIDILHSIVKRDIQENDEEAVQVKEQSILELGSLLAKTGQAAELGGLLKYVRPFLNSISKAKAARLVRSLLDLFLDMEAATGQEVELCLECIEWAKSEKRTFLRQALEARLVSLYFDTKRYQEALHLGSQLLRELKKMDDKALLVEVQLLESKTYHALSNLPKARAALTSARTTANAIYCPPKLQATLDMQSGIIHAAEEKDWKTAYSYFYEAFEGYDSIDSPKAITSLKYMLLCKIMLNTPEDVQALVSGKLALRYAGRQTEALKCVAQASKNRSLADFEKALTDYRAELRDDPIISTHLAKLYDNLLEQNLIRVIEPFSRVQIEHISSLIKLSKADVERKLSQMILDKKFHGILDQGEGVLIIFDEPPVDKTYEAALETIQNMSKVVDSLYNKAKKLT
- protocol_text: Binding affinity to biotinylated recombinant Rpn6 (unknown origin) assessed as dissociation constant by biolayer interferometry analysis
# Kd per record follows
measured_parameter: Kd (µM)

Cc1ccc(-c2noc(-c3ccc(F)cc3NC(=O)CCCCCNC(=O)CCCC[C@@H]3SC[C@@H]4NC(=O)N[C@@H]43)n2)cn1 = 1.38
Fc1ccc(-c2nc(-c3ccc4nc[nH]c4c3)no2)cc1 = 8.53
